Measured values drawn from patent US4696920A for this set.

# Test system: mean blood pressure in rat
# Experiment summary: Acute intravenous hypotensive activity in anesthetized rats
# Type: in vivo, rat (male Wistar)
# Measurement setup: Rattus norvegicus, iv, read-out: Decrease in mean blood pressure (% pretest)
# Description: Male Wistar rats were anesthetized with Pentobarbital (Nembutal, 60 mg/kg i.p.) and heparinized (5 mg/kg i.p.). After tracheotomy the right carotid was cannulated (catheter PE 50); blood pressure was measured with a pressure transducer (Statham P 23 db) and recorded on a polygraph (Beckman). Animals received 0.5 and 1.5 mg/kg of the test compounds. […] Results presented are expressed as percent decrease in initial mean blood pressure (Mean±SEM).
Please mark T if the recorded inhibition in vivo at 1.5 mg/kg is equal to or greater than 30%, and F if it falls below.

As a guide, the following entries are already answered.
CCOP(=O)(CC(CCOc1ccccc1)CP(=O)(OCC)OCC)OCC = F
CCOP(=O)(CC(CCCc1ccccc1)CP(=O)(OCC)OCC)OCC = T
CCOP(=O)(CC(CCc1ccccc1)CP(=O)(OCC)OCC)OCC = T
CC(C)OP(=O)(CC(Cc1ccccc1)CP(=O)(OC(C)C)OC(C)C)OC(C)C = T
CCOP(=O)(CC(Cc1ccccc1)CP(=O)(OCC)OCC)OCC = T

Consider the additional compound presented here.
Input: Has CCOP(=O)(CC(Cc1ccc(Cl)cc1)CP(=O)(OCC)OCC)OCC a recorded inhibition in vivo at 1.5 mg/kg greater than or equal to 30%?
Output: T
